- System: T1, human 4Ig-B7H3 (B7H3-4Ig-His) (human, UniProt Q5ZPR3 29-466)
- T1 construct: Recombinant His-tagged protein immobilised on a CM5 chip; also called 41g-B7H3; human 4Ig-B7-H3 (dominant isoform); not shown: His tag
- T1 sequence: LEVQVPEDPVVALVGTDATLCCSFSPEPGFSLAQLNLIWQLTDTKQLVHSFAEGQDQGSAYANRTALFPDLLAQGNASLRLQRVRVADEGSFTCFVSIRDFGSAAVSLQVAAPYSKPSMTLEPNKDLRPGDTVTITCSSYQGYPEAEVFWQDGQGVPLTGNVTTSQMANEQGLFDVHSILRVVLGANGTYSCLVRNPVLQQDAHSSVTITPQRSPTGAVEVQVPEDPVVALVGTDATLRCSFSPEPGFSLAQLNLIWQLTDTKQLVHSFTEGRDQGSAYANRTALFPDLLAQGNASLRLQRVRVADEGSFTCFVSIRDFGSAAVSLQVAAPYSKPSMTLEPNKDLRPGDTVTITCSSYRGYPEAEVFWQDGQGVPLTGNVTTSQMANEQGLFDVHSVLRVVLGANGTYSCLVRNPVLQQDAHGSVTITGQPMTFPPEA
- Measurement Protocol: SPR
Overview of reported t ½ across a group of binders:
// units = min; emit number, no label

| Binder | t ½, min |
| --- | --- |
| 8H9 antibody conjugated with p-SCN-Bn-CHX-A″-DTPA, CAR 1.4 (antibody, mouse IgG1, kappa, V domains shown, p-SCN-Bn-CHX-A″-DTPA conjugated, CAR 1.4 per antibody; sites not stated, Chelator conjugate, not metal-labelled) VH: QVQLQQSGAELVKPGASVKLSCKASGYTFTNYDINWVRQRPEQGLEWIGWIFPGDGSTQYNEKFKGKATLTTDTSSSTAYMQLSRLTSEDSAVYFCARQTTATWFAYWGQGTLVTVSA VL: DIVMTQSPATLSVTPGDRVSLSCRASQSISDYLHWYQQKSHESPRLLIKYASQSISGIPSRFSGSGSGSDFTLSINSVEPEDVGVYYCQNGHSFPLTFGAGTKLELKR | 65.2 |
| 8H9 antibody conjugated with p-SCN-Bn-CHX-A″-DTPA, CAR 0.6 (antibody, mouse IgG1, kappa, V domains shown, p-SCN-Bn-CHX-A″-DTPA conjugated, CAR 0.6 per antibody; sites not stated, Chelator conjugate, not metal-labelled; also called conj-CHX-A″-DTPA (CAR0.6)) VH: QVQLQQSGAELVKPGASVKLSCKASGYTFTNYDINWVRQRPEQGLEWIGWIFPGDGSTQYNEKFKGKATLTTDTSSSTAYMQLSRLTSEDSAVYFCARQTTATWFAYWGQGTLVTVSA VL: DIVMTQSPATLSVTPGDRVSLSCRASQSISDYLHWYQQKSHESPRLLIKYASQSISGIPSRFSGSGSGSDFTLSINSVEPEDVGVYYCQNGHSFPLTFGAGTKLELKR | 53 |
| 8H9 antibody conjugated with p-SCN-Bn-CHX-A″-DTPA, CAR 3.6 (antibody, mouse IgG1, kappa, V domains shown, p-SCN-Bn-CHX-A″-DTPA conjugated, CAR 3.6 per antibody; sites not stated, Chelator conjugate, not metal-labelled) VH: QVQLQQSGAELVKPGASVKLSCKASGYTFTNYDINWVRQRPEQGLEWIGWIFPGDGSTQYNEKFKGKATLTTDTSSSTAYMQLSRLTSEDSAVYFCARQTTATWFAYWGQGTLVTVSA VL: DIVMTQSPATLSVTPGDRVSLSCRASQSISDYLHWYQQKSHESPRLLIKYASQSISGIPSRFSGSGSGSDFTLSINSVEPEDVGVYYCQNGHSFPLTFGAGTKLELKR | 30.5 |

Next:
IN: Let me know recorded t ½ for 8H9 antibody conjugated with p-SCN-Bn-CHX-A″-DTPA, CAR 6.1 (antibody, mouse IgG1, kappa, V domains shown, p-SCN-Bn-CHX-A″-DTPA conjugated, CAR 6.1 per antibody; sites not stated, Chelator conjugate, not metal-labelled) VH: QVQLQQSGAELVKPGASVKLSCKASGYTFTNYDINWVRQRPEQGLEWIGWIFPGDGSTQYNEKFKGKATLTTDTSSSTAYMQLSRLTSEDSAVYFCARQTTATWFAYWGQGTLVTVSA VL: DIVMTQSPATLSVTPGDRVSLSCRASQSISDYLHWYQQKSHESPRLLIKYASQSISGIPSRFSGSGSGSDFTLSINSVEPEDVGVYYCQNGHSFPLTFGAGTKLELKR , thanks.
OUT: 12.9
